# System: B16F10
# runDescription: Growth inhibition test (MTT), cytotoxic action on tumour cell lines
# Type: cell-based, mouse
# statedConditions: B16F10; MTT after day 6; read-out: IC50 values of the cytotoxic action on tumour cell lines, B16F10
*1 amine or outer side, *2 acyl side, *3 side chain or, on linkers, in order; H or OH if unused. Where a SMILES comes first, the peptide text is derived from it. [ ]: non-standard residue; d: D form. The star is where a group is joined. Camptothecin(20R,20-O) = CC[C@]1(O*)C(=O)OCc2c1cc1n(c2=O)Cc2cc3ccccc3nc2-1; X5 = O=C(Nc1cccc(-c2cccc(S(=O)(=O)*)c2)c1)Nc1nc2ccccc2[nH]1; X4 = O=C(O)CC(N[*:1])c1cccc(NC(=S)[*:2])c1
recordedEndpoint: pIC50
Scale explanation: pIC50 corresponds to minus log10 of a concentration expressed in moles per litre.

Query: Entry under review: CC[C@]1(OC(=O)[C@H](NC(=O)[C@@H](Cc2c[nH]cn2)NC(=O)[C@@H](CC(C)C)NC(=O)CNC(=O)[C@H](CC(C)C)NC(=O)[C@H]2CCCN2C(=S)Nc2cccc(C(CC(=O)O)NS(=O)(=O)c3cccc(-c4cccc(NC(=O)Nc5nc6ccccc6[nH]5)c4)c3)c2)C(C)C)C(=O)OCc2c1cc1n(c2=O)Cc2cc3ccccc3nc2-1 (stereo partly drawn) [Example 5] (X5-[X4][dP]LG[dL][dH][dV]-{Camptothecin(20R,20-O)}) . Reported pIC50?
Reply: 6.46

Query: Entry under review: CCCNC(=O)Nc1cccc(S(=O)(=O)Nc2cccc(C(CC(=O)O)NC(=O)Nc3ccc(NC(=S)N4CCC[C@@H]4C(=O)N[C@@H](CC(C)C)C(=O)NCC(=O)N[C@H](Cc4c[nH]cn4)C(=O)N[C@@H](C(=O)O[C@@]4(CC)C(=O)OCc5c4cc4n(c5=O)Cc5cc6ccccc6nc5-4)C(C)C)cc3)c2)c1 (single isomer, unassigned) . Reported pIC50?
Reply: 6.52

----------
# assayedSystem: MMP-2 (Homo sapiens)
# Construct: purchased Calbiochem
# Sequence (P08253 110-660, species assumed): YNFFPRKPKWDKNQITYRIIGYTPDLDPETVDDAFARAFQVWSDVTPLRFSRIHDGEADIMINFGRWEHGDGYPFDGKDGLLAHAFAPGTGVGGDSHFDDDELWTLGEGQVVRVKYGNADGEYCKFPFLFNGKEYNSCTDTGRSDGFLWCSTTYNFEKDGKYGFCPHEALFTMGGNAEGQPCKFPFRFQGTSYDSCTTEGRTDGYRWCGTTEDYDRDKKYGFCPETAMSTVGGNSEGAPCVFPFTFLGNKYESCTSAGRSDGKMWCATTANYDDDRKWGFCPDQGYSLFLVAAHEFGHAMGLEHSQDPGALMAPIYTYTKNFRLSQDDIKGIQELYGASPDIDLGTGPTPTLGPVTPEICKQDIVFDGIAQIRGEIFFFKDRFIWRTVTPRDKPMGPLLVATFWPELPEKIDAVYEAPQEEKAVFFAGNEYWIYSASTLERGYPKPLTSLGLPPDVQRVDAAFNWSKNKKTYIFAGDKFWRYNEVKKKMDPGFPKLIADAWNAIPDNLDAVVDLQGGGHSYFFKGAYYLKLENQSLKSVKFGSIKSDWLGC
# runDescription: Cleavage of conjugates by MMP-2 in buffer (HPLC)
# Format: biochemical
# statedConditions: after 6 h incubation with MMP-2; buffer pH 7.5
*1 amine or outer side, *2 acyl side, *3 side chain or, on linkers, in order; H or OH if unused. Where a SMILES comes first, the peptide text is derived from it. [ ]: non-standard residue; d: D form. The star is where a group is joined. Camptothecin(20R,20-O) = CC[C@]1(O*)C(=O)OCc2c1cc1n(c2=O)Cc2cc3ccccc3nc2-1; X2 = CCCNC(=O)Nc1cccc(S(=O)(=O)Nc2cccc(C(CC(=O)O)NC(=O)Nc3ccc(N*)cc3)c2)c1; X3 = O=C(Nc1cccc(-c2ccc(S(=O)(=O)*)cc2)c1)Nc1nc2ccccc2[nH]1; X4 = O=C(O)CC(N[*:1])c1cccc(NC(=S)[*:2])c1; CO = O=C([*:1])[*:2]
recordedEndpoint: MMP-2 mediated cleavage Peak area product/educt x100

Query: Entry under review: CCCNC(=O)Nc1cccc(S(=O)(=O)Nc2cccc(C(CC(=O)O)NC(=O)Nc3ccc(NC(=O)N4CCC[C@@H]4C(=O)N[C@@H](CC(C)C)C(=O)NCC(=O)N[C@H](CC(C)C)C(=O)N[C@H](CC(N)=O)C(=O)N[C@@H](C(=O)O[C@@]4(CC)C(=O)OCc5c4cc4n(c5=O)Cc5cc6ccccc6nc5-4)C(C)C)cc3)c2)c1 (stereo partly drawn) [Example 12] ({X2-CO}-[dP]LG[dL][dN][dV]-{Camptothecin(20R,20-O)}) . Reported MMP-2 mediated cleavage Peak area product/educt x100?
Reply: 70

Query: Entry under review: CC[C@]1(OC(=O)[C@H](NC(=O)[C@@H](Cc2c[nH]cn2)NC(=O)[C@@H](CC(C)C)NC(=O)CNC(=O)[C@H](CC(C)C)NC(=O)[C@H]2CCCN2C(=S)Nc2cccc(C(CC(=O)O)NS(=O)(=O)c3ccc(-c4cccc(NC(=O)Nc5nc6ccccc6[nH]5)c4)cc3)c2)C(C)C)C(=O)OCc2c1cc1n(c2=O)Cc2cc3ccccc3nc2-1 (stereo partly drawn) [Example 4] (X3-[X4][dP]LG[dL][dH][dV]-{Camptothecin(20R,20-O)}) . Reported MMP-2 mediated cleavage Peak area product/educt x100?
Reply: 6

Query: Entry under review: CCCNC(=O)Nc1cccc(S(=O)(=O)Nc2cccc(C(CC(=O)O)NC(=O)Nc3ccc(NC(=S)N4CCC[C@@H]4C(=O)N[C@@H](CC(C)C)C(=O)NCC(=O)N[C@H](CC(C)C)C(=O)N[C@H](CC(N)=O)C(=O)N[C@@H](C(=O)O[C@@]4(CC)C(=O)OCc5c4cc4n(c5=O)Cc5cc6ccccc6nc5-4)C(C)C)cc3)c2)c1 (single isomer, unassigned) [Example 11] . Reported MMP-2 mediated cleavage Peak area product/educt x100?
Reply: 20
